Give Drug uptake for every item shown.
# System: Blood
# PROTOCOL NOTES: Drug uptake in CD1 mouse blood at 5 mg/kg, iv
# Assay type: ADME, organism-based
# SETTINGS: in vivo

Consider the compound `CN[C@H](CC(C)C)C(=O)N[C@H]1C(=O)N[C@@H](CC(N)=O)C(=O)N[C@H]2C(=O)N[C@H]3C(=O)N[C@H](C(=O)N[C@H](C(=O)O)c4cc(O)cc(O)c4-c4cc3ccc4O)[C@H](O)c3ccc(c(Cl)c3)Oc3cc2cc(c3O[C@@H]2O[C@H](CO)[C@@H](O)[C@H](O)[C@H]2O[C@H]2C[C@](C)(NCc3ccc(-c4ccc(C(F)(F)F)cc4)cc3)[C@H](O)[C@H](C)O2)Oc2ccc(cc2Cl)[C@H]1O` and give its recorded Drug uptake.
> 1 µg/mL

Consider the compound `CN[C@H](CC(C)C)C(=O)N[C@H]1C(=O)N[C@@H](CC(N)=O)C(=O)N[C@H]2C(=O)N[C@H]3C(=O)N[C@H](C(=O)N[C@H](C(=O)O)c4cc(O)c(CNCCCNC(=O)[C@H](O)[C@@H](O)[C@H](O)[C@H](O)CO)c(O)c4-c4cc3ccc4O)[C@H](O)c3ccc(c(Cl)c3)Oc3cc2cc(c3O[C@@H]2O[C@H](CO)[C@@H](O)[C@H](O)[C@H]2O[C@H]2C[C@](C)(NCc3ccc(-c4ccc(C(F)(F)F)cc4)cc3)[C@H](O)[C@H](C)O2)Oc2ccc(cc2Cl)[C@H]1O` and give its recorded Drug uptake.
> 1 µg/mL

Consider the compound CN[C@H](CC(C)C)C(=O)N[C@H]1C(=O)N[C@@H](CC(N)=O)C(=O)N[C@H]2C(=O)N[C@H]3C(=O)N[C@H](C(=O)N[C@H](C(=O)O)c4cc(O)c(CN[C@H]5C(O)O[C@H](CO)[C@H](O)[C@@H]5O)c(O)c4-c4cc3ccc4O)[C@H](O)c3ccc(c(Cl)c3)Oc3cc2cc(c3O[C@@H]2O[C@H](CO)[C@@H](O)[C@H](O)[C@H]2O[C@H]2C[C@](C)(NCc3ccc(-c4ccc(Cl)cc4)cc3)[C@H](O)[C@H](C)O2)Oc2ccc(cc2Cl)[C@H]1O (stereo partly drawn) and give its recorded Drug uptake.
> 1 µg/mL

* * *

# Test system: Enterococcus faecium
# PROTOCOL NOTES: Antibacterial activity against glycopeptide-resistant Enterococcus faecium Efm-HS-0649 vanA after 24 hrs by broth microdilution method
# Assay type: functional
# SETTINGS: Efm-HS-0649, 24 h
Please assign Not met whenever MIC is at or above 2 µg/mL, and Met whenever it is below.

I'd appreciate it if you could check whether `CN[C@H](CC(C)C)C(=O)N[C@H]1C(=O)N[C@@H](CC(N)=O)C(=O)N[C@H]2C(=O)N[C@H]3C(=O)N[C@H](C(=O)N[C@H](C(=O)NCCCN(C)C)c4cc(O)c(C)c(O)c4-c4cc3ccc4O)[C@H](O)c3ccc(c(Cl)c3)Oc3cc2cc(c3O[C@@H]2O[C@H](CO)[C@@H](O)[C@H](O)[C@H]2O[C@H]2C[C@](C)(NCc3ccc(-c4ccc(Cl)cc4)cc3)[C@H](O)[C@H](C)O2)Oc2ccc(cc2Cl)[C@H]1O` has MIC smaller than 2 µg/mL.
Met

I'd appreciate it if you could check whether CCCCCCCCCCNCCN[C@@]1(C)C[C@H](O[C@H]2[C@H](Oc3c4cc5cc3Oc3ccc(cc3Cl)[C@@H](O)[C@@H](NC(=O)[C@@H](CC(C)C)NC)C(=O)N[C@@H](CC(N)=O)C(=O)N[C@H]5C(=O)N[C@H]3C(=O)N[C@H](C(=O)N[C@H](C(=O)O)c5cc(O)c(CN[C@H]6C(O)O[C@H](CO)[C@H](O)[C@@H]6O)c(O)c5-c5cc3ccc5O)[C@H](O)c3ccc(c(Cl)c3)O4)O[C@H](CO)[C@@H](O)[C@@H]2O)O[C@@H](C)[C@H]1O (some centres undefined) has MIC smaller than 2 µg/mL.
Not met

I'd appreciate it if you could check whether CN[C@H](CC(C)C)C(=O)N[C@H]1C(=O)N[C@@H](CC(N)=O)C(=O)N[C@H]2C(=O)N[C@H]3C(=O)N[C@H](C(=O)N[C@H](C(=O)O)c4cc(O)cc(O)c4-c4cc3ccc4O)[C@H](O)c3ccc(c(Cl)c3)Oc3cc2cc(c3O[C@@H]2O[C@H](CO)[C@@H](O)[C@H](O)[C@H]2O[C@H]2C[C@](C)(N)[C@H](O)[C@H](C)O2)Oc2ccc(cc2Cl)[C@H]1O [VANCOMYCIN] has MIC smaller than 2 µg/mL.
Not met

I'd appreciate it if you could check whether CCCCCCCCCCNCCN[C@@]1(C)C[C@H](O[C@H]2[C@H](Oc3c4cc5cc3Oc3ccc(cc3Cl)[C@@H](O)[C@@H](NC(=O)[C@@H](CC(C)C)NC)C(=O)N[C@@H](CC(N)=O)C(=O)N[C@H]5C(=O)N[C@H]3C(=O)N[C@H](C(=O)N[C@H](C(=O)O)c5cc(O)c(CN[C@H]6C(O)O[C@H](CO)[C@@H](O)[C@@H]6O)c(O)c5-c5cc3ccc5O)[C@H](O)c3ccc(c(Cl)c3)O4)O[C@H](CO)[C@@H](O)[C@@H]2O)O[C@@H](C)[C@H]1O (some centres undefined) has MIC smaller than 2 µg/mL.
Not met

I'd appreciate it if you could check whether `CN[C@H](CC(C)C)C(=O)N[C@H]1C(=O)N[C@@H](CC(N)=O)C(=O)N[C@H]2C(=O)N[C@H]3C(=O)N[C@H](C(=O)N[C@H](C(=O)O)c4cc(O)c(CNCCO[C@H]5O[C@H](CO)[C@@H](O)[C@H](O)[C@@H]5O)c(O)c4-c4cc3ccc4O)[C@H](O)c3ccc(c(Cl)c3)Oc3cc2cc(c3O[C@@H]2O[C@H](CO)[C@@H](O)[C@H](O)[C@H]2O[C@H]2C[C@](C)(NCc3ccc(-c4ccc(Cl)cc4)cc3)[C@H](O)[C@H](C)O2)Oc2ccc(cc2Cl)[C@H]1O` has MIC smaller than 2 µg/mL.
Met

I'd appreciate it if you could check whether `CCCCCCCCCCNCCN[C@@]1(C)C[C@H](O[C@H]2[C@H](Oc3c4cc5cc3Oc3ccc(cc3Cl)[C@@H](O)[C@@H](NC(=O)[C@@H](CC(C)C)NC)C(=O)N[C@@H](CC(N)=O)C(=O)N[C@H]5C(=O)N[C@H]3C(=O)N[C@H](C(=O)N[C@H](C(=O)O)c5cc(O)c(CNCCO)c(O)c5-c5cc3ccc5O)[C@H](O)c3ccc(c(Cl)c3)O4)O[C@H](CO)[C@@H](O)[C@@H]2O)O[C@@H](C)[C@H]1O` has MIC smaller than 2 µg/mL.
Not met

I'd appreciate it if you could check whether CCCCCCCCCCNCCN[C@@]1(C)C[C@H](O[C@H]2[C@H](Oc3c4cc5cc3Oc3ccc(cc3Cl)[C@@H](O)[C@@H](NC(=O)[C@@H](CC(C)C)NC)C(=O)N[C@@H](CC(N)=O)C(=O)N[C@H]5C(=O)N[C@H]3C(=O)N[C@H](C(=O)N[C@H](C(=O)O)c5cc(O)c(CNCP(=O)(O)O)c(O)c5-c5cc3ccc5O)[C@H](O)c3ccc(c(Cl)c3)O4)O[C@H](CO)[C@@H](O)[C@@H]2O)O[C@@H](C)[C@H]1O [TELAVANCIN] has MIC smaller than 2 µg/mL.
Not met

Origin of values: ChEMBL document CHEMBL4052823
